Molecular target: murine Nurr1 receptor (Mus musculus, UniProt Q06219)
Construct: endogenously expressing the murine Nurr1 receptor
Sequence (Q06219 whole entry): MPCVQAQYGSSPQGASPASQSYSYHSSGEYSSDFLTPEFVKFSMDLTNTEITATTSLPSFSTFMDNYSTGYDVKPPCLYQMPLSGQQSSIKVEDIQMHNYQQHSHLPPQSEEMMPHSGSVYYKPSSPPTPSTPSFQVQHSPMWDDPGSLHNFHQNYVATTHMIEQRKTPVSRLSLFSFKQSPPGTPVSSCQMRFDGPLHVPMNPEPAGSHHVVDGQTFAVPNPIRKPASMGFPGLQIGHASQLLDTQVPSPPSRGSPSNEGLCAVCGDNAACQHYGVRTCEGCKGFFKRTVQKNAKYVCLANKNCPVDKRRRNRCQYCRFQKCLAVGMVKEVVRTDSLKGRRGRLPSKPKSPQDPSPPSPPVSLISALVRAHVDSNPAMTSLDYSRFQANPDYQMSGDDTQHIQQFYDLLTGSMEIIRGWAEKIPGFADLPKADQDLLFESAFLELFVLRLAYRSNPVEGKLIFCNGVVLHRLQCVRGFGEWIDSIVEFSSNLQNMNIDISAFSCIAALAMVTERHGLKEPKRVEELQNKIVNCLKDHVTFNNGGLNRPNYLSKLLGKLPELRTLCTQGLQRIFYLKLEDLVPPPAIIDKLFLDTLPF
Test: In vitro activity on N2A cells (NBRE-luciferase reporter)
Settings: N2A-8NBRE-luciferase cells, 24 hours incubation
Method: The tests consisted in evaluating the in vitro activity of the compounds of the invention on a cell line (N2A) endogenously expressing the murine Nurr1 receptor and stably transfected with the NOT binding response element (NBRE) coupled to the luciferase reporter gene. […] The cell line Neuro-2A is obtained from a standard commercial source (ATCC). […] The plates are then measured in a microplate luminescence counter, after having been sealed with an adhesive film. […]
pEC50: −log10 of the molar value.
Quantity name: pEC50

A. O=C(Nc1ccc(F)cc1)c1cn2cc(Cl)ccc2n1
B. O=C(Nc1ccccc1)c1cn2ccccc2n1
Input line: // returns A or B , whichever has the lower pEC50 To answer, give the label that identifies your chosen option.
Output line: A
